# targetSystem: Ubiquitin carboxyl-terminal hydrolase 1 (Homo sapiens) (UniProt O94782)
# Sequence (O94782 whole entry, looked up): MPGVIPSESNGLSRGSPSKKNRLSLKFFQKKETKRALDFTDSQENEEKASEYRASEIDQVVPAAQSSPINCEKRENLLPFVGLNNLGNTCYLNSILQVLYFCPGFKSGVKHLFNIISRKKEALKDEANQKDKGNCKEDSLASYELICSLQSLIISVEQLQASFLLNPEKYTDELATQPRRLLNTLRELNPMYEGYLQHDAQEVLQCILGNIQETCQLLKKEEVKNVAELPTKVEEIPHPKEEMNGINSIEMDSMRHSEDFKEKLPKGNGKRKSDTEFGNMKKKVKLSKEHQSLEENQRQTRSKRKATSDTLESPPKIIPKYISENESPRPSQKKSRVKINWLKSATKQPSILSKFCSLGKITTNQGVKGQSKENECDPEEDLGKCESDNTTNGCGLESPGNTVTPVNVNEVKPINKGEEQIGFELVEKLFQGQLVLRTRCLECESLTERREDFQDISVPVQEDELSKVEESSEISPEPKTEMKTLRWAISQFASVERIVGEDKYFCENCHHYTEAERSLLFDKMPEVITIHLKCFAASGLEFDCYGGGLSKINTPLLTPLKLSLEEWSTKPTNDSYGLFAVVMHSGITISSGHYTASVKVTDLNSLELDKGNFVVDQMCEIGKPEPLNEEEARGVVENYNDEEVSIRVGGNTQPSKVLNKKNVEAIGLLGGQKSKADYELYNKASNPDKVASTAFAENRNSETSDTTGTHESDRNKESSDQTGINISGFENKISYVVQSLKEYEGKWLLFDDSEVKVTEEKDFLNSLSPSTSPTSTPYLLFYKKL
# protocolNotes: Inhibitors of USP1/UAF1: Pilot qHTS (AID 504865); note: nearly all actives have a fitted effect of over 35% in size; note: potency is the fitted concentration of half-maximal effect
# conditionLabel: purified USP1/UAF1, Ub-rhodamine cleavage fluorescence; series mostly up to 114 µM
Results filed as inconclusive are left out. The source made the active and inactive calls. Calls come from the whole dose curve; as a rule, active = well fitted inhibition curve with a large enough effect; inconclusive = small, poorly fitted or top-dose-only effect; inactive = flat fitted curve, though single readings scatter.
observationType: Potency

[
  {
    "smilesData": "CCCCCCCCOc1ccc(C(=O)c2ccccc2)c(O)c1",
    "Potency": "inactive"
  },
  {
    "smilesData": "COc1cc(N)c(Cl)cc1C(=O)NC1CCN(Cc2ccccc2)CC1",
    "Potency": "inactive"
  },
  {
    "smilesData": "Cc1cccc(C)c1NC(=O)c1ccccc1C(=O)O",
    "Potency": "inactive"
  },
  {
    "smilesData": "CCCc1ncc(C[n+]2ccccc2C)c(N)n1",
    "Potency": "inactive"
  },
  {
    "smilesData": "CCN(CC)CCNC(=O)c1cc(Br)c(N)cc1OC",
    "Potency": "inactive"
  }
]

Could you tell me Potency for each of these compounds? They are listed below.
1. CCOC(=O)Nc1ccc2c(c1)N(C(=O)CCN1CCOCC1)c1ccccc1S2
2. CC(C)Cc1ccc(CC(=O)O)cc1
3. CCN1/C(=C/C=C/c2sc3ccccc3[n+]2CC)Sc2ccccc21

1. inactive
2. inactive
3. 44.7 µM (active)

====

# System: MKL-1
# protocolNotes: qHTS assay to identify novel small-molecules to repurpose for Merkel cell carcinoma treatment (AID 1296009); note: nearly all actives have a fitted effect of over 60% in size
# conditionLabel: MCC and control cell lines, CellTiter-Glo viability, 72 h; series mostly up to 46 µM
Inconclusive results are not listed. Active and inactive are the calls of the source. Calls follow the shape of the dose curve; as a rule, active = well fitted inhibition curve with a large enough effect; inconclusive = small, poorly fitted or top-dose-only effect; inactive = flat fitted curve, though single readings scatter.
Can you answer with just one of these options? active, inactive

Sample answers from the record:
[
  {
    "compound": "CCCN(CCc1cccs1)[C@H]1CCc2c(O)cccc2C1",
    "targetSystem": "MKL-1",
    "answerLabel": "inactive"
  },
  {
    "compound": "CCN(CC)CCOc1ccccc1C(=O)CCc1ccccc1",
    "targetSystem": "MKL-1",
    "answerLabel": "inactive"
  }
]

Per the assay record, what outcome was assigned to CC1(COc2ccc(CC3SC(=O)NC3=O)cc2)CCCCC1 (stereo unspecified) ?
inactive

Lab log entry: Cc1cc2c(OCC(CNC(C)(C)C)OC(=O)c3ccccc3)cccc2[nH]1 (stereo unspecified) — outcome as called in the assay?
inactive

For this compound, state the assay outcome: CC(=O)Nc1ccc(CC(=O)O)cc1
inactive

Recorded call for NCc1ccccc1Sc1ccccc1CO ?
inactive

Short answer needed: outcome of this test for Nc1ccc(S(=O)(=O)Nc2cnc3ccccc3n2)cc1 ?
inactive

Check the results log: what was the call for COc1cc(C(=O)N2CCCCCCC2)cc(OC)c1OC ?
inactive

How was CC(=O)Oc1ccc(C)cc1 classified in this test?
inactive

Identify the outcome logged in this assay for the compound shown: CN1CCC[C@@H]1CCO[C@](C)(c1ccccc1)c1ccc(Cl)cc1
active

Lab log entry: Nc1nc(Cl)nc2c1ncn2[C@@H]1O[C@H](CO)[C@@H](O)[C@@H]1F — outcome as called in the assay?
active

====

# System: CP217
# protocolNotes: qHTS profiling for inhibitors of Plasmodium falciparum proliferation (AID 504749); note: nearly all actives have a fitted effect of over 60% in size
# conditionLabel: P. falciparum in erythrocytes, SYBR Green DNA, 72 h; series mostly up to 28.7 µM
Results filed as inconclusive are left out. Calls of active or inactive are those of the source. The call rests on the fitted dose curve; in most records, active means well fitted inhibition curve with a large enough effect; inconclusive means small, poorly fitted or top-dose-only effect; inactive means flat fitted curve, though single readings scatter.
Entry note: the call must match one of active, inactive

[
  {
    "molecule": "CCN1/C(=C/C=C/c2sc3ccccc3[n+]2CC)Sc2ccccc21",
    "answerLabel": "active"
  },
  {
    "molecule": "Cc1cc(NS(=O)(=O)c2ccc(N)cc2)nc(C)n1",
    "answerLabel": "inactive"
  },
  {
    "molecule": "CCOc1ccccc1OCCN[C@H](C)Cc1ccc(OC)c(S(N)(=O)=O)c1",
    "answerLabel": "inactive"
  },
  {
    "molecule": "O=C(Oc1cccc2cccnc12)c1ccccc1",
    "answerLabel": "inactive"
  },
  {
    "molecule": "CCOC(=O)[C@H](CCc1ccccc1)N[C@@H](C)C(=O)N1[C@H](C(=O)O)C[C@H]2CCCC[C@@H]21",
    "answerLabel": "inactive"
  }
]

How did this test come out for O=[N+]([O-])c1cccc(S(=O)(=O)NCCNS(=O)(=O)c2cccc([N+](=O)[O-])c2)c1 ?
inactive

Dear all, I need the recorded test outcome for Nc1nc(N)c(-c2ccccc2)s1 , thank you.
inactive

Which outcome was entered for the molecule CC(C)(C)NC[C@H](O)COc1cccc2c1CCCC2=O in this test?
inactive

Call for entry C/C=C/C=N/NC(=O)c1ccncc1 :
inactive

Which outcome was entered for the molecule OC[C@H]1O[C@@H]2O[C@H]3[C@H](O)[C@@H](O)[C@@H](O[C@H]4[C@H](O)[C@@H](O)[C@@H](O[C@H]5[C@H](O)[C@@H](O)[C@@H](O[C@H]6[C@H](O)[C@@H](O)[C@@H](O[C@H]7[C@H](O)[C@@H](O)[C@@H](O[C@H]8[C@H](O)[C@@H](O)[C@@H](O[C@H]1[C@H](O)[C@H]2O)O[C@@H]8CO)O[C@@H]7CO)O[C@@H]6CO)O[C@@H]5CO)O[C@@H]4CO)O[C@@H]3CO in this test?
inactive

# outcome recorded in this test, key = Cc1cccc(C)c1NC(=O)CN1CCCC1
inactive

Identify the outcome logged in this assay for the molecule shown: C[N+]1(CC2COC(c3ccccc3)(C3CCCCC3)O2)CCCCC1 (configuration not stated)
active

====

# Test system: CP237
# protocolNotes: qHTS profiling for inhibitors of Plasmodium falciparum proliferation (AID 504749); note: nearly all actives have a fitted effect of over 60% in size
# conditionLabel: P. falciparum in erythrocytes, SYBR Green DNA, 72 h; series mostly up to 28.7 µM
# Method: NIH National Institute of Allergy and Infectious Diseases [NIAID] NIH Chemical Genomics Center [NCGC] […] Because mature erythrocytes lack DNA, only Plasmodium-derived DNA is detected. NCGC Assay Protocol Summary: The SYBR Green viability assay was adapted from a method described previously (Plouffe et al., 2008). […] The following morning, fluorescence intensity at 485(14) nm excitation and 535(25) nm emission wavelengths was measured on an EnVision (Perkin Elmer) plate reader. […]
Inconclusive results are not listed. Active and inactive are the calls of the source. The call rests on the fitted dose curve; in most records, active means well fitted inhibition curve with a large enough effect; inconclusive means small, poorly fitted or top-dose-only effect; inactive means flat fitted curve, though single readings scatter.
Write down the outcome that applies. Available outcomes: yes (1) = active, no (0) = inactive

Please review the entries below; each comes with its answer.
[
  {
    "smilesData": "N/C(=N\\N=C\\c1ccc(Cl)cc1)N/N=C/c1ccc(Cl)cc1",
    "answerLabel": "yes (1)"
  },
  {
    "smilesData": "O=c1[nH]c(=O)n([C@H]2C[C@H](O)[C@@H](CO)O2)cc1F",
    "answerLabel": "no (0)"
  },
  {
    "smilesData": "C[C@@H](O)[C@H]1C(=O)N2C(C(=O)O)=C(S[C@@H]3CN[C@H](CNS(N)(=O)=O)C3)[C@H](C)[C@H]12",
    "answerLabel": "no (0)"
  }
]

Returns: the outcome recorded for N#CCC(=O)NN in this assay.
no (0)

Assay result, entry C=C[C@@]1(C)CC(=O)[C@]2(O)[C@@]3(C)[C@@H](O)CCC(C)(C)[C@@H]3[C@H](O)[C@H](OC(C)=O)[C@@]2(C)O1 — outcome?
no (0)

Which result was noted for this compound in the test: COc1cc(NS(=O)(=O)c2ccc(N)cc2)ncn1
no (0)

Which outcome was assigned to Nc1ccc(S(=O)(=O)NCc2ccccc2)cc1 in this test?
no (0)

====

# Tested on: CP291
# protocolNotes: qHTS profiling for inhibitors of Plasmodium falciparum proliferation (AID 504749); note: nearly all actives have a fitted effect of over 60% in size
# conditionLabel: P. falciparum in erythrocytes, SYBR Green DNA, 72 h; series mostly up to 28.7 µM
Results filed as inconclusive are left out. Calls of active or inactive are those of the source. Calls follow the shape of the dose curve; as a rule, active = well fitted inhibition curve with a large enough effect; inconclusive = small, poorly fitted or top-dose-only effect; inactive = flat fitted curve, though single readings scatter.
Please answer using one outcome listed in Yes for active, No for inactive

Record excerpt, results attached:
[
  {
    "molecule": "NC(N)=NCc1cccc(I)c1",
    "targetSystem": "CP291",
    "answerLabel": "No"
  },
  {
    "molecule": "Cc1c[nH]c2ccccc12",
    "targetSystem": "CP291",
    "answerLabel": "No"
  },
  {
    "molecule": "OC[C@H]1O[C@@H]2O[C@H]3[C@H](O)[C@@H](O)[C@@H](O[C@H]4[C@H](O)[C@@H](O)[C@@H](O[C@H]5[C@H](O)[C@@H](O)[C@@H](O[C@H]6[C@H](O)[C@@H](O)[C@@H](O[C@H]7[C@H](O)[C@@H](O)[C@@H](O[C@H]8[C@H](O)[C@@H](O)[C@@H](O[C@H]1[C@H](O)[C@H]2O)O[C@@H]8CO)O[C@@H]7CO)O[C@@H]6CO)O[C@@H]5CO)O[C@@H]4CO)O[C@@H]3CO",
    "targetSystem": "CP291",
    "answerLabel": "No"
  },
  {
    "molecule": "COc1cc(C(=S)N2CCOCC2)ccc1O",
    "targetSystem": "CP291",
    "answerLabel": "No"
  }
]

Please let me know the test result on file for Cn1c(=O)c2[nH]c(Br)nc2n(C)c1=O .
No

Which outcome did this test record for the molecule Cl/C(=C\n1cncn1)c1ccc(Cl)cc1Cl ?
No

How was Nc1ccc(C(=O)NCC(=O)O)cc1 classified in this test?
No

What call does the record list for CC(=O)Oc1ccc(C)cc1 ?
No
